tested on: SNB-19; experiment: NCI tumour cell line growth inhibition, 48 h
Activity calls are given as the source filed them. Cut-off read from the data, not from the text of the source: active = GI50 up to about 1.1 µM and inactive = higher.
Labels: label 1 = active, label 0 = inactive

INSERT INTO measurements (molecule, assigned_category) VALUES
  ('NC1=NC(=O)/C(=C/c2ccccc2[N+](=O)[O-])C(N)=N1', 'label 0'),
  ('COc1cc2c(cc1OC)C1CN3CCCC3C(O)C1c1cc(OC)c(OC)cc1-2 (configuration not stated)', 'label 0'),
  ('COc1cc(/C=C2\[C@@H]3NC(Cc4c(OC)c(C)c(OC)c(OC)c43)C(=O)N2Cc2ccccc2)c(OC)c(C)c1OC', 'label 0'),
  ('[O-]c1on[n+]2c1c(Nc1ccc(Cl)cc1)nc1ccccc12', 'label 0'),
  ('C/C(=N\Nc1nc2ccccc2[nH]1)c1cc2ccccc2cn1', 'label 1'),
  ('CC(=O)c1sc2n(C)c(=O)c3ccccc3[n+]2c1C', 'label 0'),
  ('[O-][Cl+3]([O-])([O-])O.c1ccc(/N=c2\nc(N3CCOCC3)ss2)cc1', 'label 0');

The measurements presented in this section are drawn from ChEMBL document CHEMBL1201862.
